system: CML CFU-G; experiment: Granulocyte colony formation of circulating mononuclear cells from CML patients (CFU-G / CFU-GM); type: cell-based, human; details: Homo sapiens, CFU-GM, read-out: IC50 for Adaphostin without STI571, CFU-GM, patient number 34; linear regression

- line notation: "O=C(OC12CC3CC(CC(C3)C1)C2)c1ccc(NCc2cc(O)ccc2O)cc1"
  system tested: "CML CFU-G"
  unit: "µM"
  IC50: 11
